Biological target: EGFR-L858R/C797S (H1975-clone #8 cells) (Homo sapiens, UniProt P00533, C797S/L858R)
Construct: expressed in transfected cells; host or cells: H1975 (endogenous EGFR knocked out, clone #8)
Sequence (P00533 25-1210 C797S/L858R): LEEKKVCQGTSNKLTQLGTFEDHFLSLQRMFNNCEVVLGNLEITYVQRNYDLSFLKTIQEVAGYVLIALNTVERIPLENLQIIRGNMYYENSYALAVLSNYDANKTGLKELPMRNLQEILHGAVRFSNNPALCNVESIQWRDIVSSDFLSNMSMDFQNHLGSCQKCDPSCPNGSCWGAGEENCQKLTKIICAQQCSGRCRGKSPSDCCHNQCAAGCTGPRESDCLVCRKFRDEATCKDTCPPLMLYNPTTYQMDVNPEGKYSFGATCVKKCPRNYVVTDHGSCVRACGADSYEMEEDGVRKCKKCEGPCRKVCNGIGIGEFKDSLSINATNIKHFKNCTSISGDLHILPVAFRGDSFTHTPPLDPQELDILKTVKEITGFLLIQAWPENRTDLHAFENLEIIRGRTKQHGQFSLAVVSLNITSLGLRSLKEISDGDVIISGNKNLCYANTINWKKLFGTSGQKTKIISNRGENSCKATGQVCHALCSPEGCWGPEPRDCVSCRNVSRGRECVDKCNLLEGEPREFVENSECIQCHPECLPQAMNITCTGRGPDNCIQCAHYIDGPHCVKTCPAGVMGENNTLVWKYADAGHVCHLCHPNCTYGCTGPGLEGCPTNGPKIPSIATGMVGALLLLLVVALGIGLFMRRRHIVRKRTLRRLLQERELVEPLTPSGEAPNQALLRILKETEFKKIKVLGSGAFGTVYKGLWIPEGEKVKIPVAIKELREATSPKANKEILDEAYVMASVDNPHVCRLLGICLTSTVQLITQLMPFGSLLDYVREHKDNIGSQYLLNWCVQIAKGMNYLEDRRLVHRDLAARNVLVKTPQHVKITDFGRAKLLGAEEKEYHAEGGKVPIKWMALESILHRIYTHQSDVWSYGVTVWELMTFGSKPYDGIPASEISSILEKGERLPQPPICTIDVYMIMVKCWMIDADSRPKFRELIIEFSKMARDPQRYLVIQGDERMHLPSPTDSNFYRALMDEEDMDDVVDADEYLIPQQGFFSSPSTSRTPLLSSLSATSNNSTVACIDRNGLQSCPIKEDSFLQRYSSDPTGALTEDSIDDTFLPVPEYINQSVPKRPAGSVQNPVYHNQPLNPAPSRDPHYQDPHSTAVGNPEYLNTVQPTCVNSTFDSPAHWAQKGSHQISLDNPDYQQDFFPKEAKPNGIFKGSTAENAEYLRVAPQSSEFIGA
Experiment: Cell degradation of EGFR, HTRF assay, H1975-clone#8 (L858R/C797S) cells
Format: cell-based
Settings: 16 h treatment, EGFR degradation

[
  {
    "Compound": "COC[C@H]1CN(c2ccc3c(c2)N2C[C@@H]4CC[C@H](COc5c(c(C)nn5C)-c5cc(cc(C)n5)C(=O)/N=C/2N3)C4)CCN1C1CCN(c2c(C)cc(C3CCC(=O)NC3=O)nc2C)CC1 (stereo partly drawn)",
    "Experimental Target": "EGFR-L858R/C797S (H1975-clone #8 cells) (Homo sapiens, UniProt P00533, C797S/L858R)",
    "DC50 / nM": 0.804
  },
  {
    "Compound": "Cc1cc2cc(n1)-c1cnn(C)c1OC[C@H]1CCC(C1)CN1/C(=N/C2=O)Nc2ccc(N3CCN(C4(CO)CCN(c5ccc(C6CCC(=O)NC6=O)nc5C)CC4)CC3)cc21 (stereo partly drawn)",
    "Experimental Target": "EGFR-L858R/C797S (H1975-clone #8 cells) (Homo sapiens, UniProt P00533, C797S/L858R)",
    "DC50 / nM": 1.09
  },
  {
    "Compound": "COc1cc2c(cc1N1CCN(C3CCN(c4cc(F)c([C@H]5CCC(=O)NC5=O)c(F)c4)CC3)CC1)N1C[C@@H]3CC[C@H](COc4c(c(C)nn4C)-c4cc(cc(C)n4)C(=O)/N=C/1N2)C3",
    "Experimental Target": "EGFR-L858R/C797S (H1975-clone #8 cells) (Homo sapiens, UniProt P00533, C797S/L858R)",
    "DC50 / nM": 1.28
  },
  {
    "Compound": "Cc1cc2cc(n1)-c1cnn(C)c1OC[C@H]1CCC(C1)CN1/C(=N/C2=O)Nc2ccc(N3CCN(C4CCN(c5cc(F)c([C@H]6CCC(=O)NC6=O)c(F)c5)CC4)[C@@H](CO)C3)cc21",
    "Experimental Target": "EGFR-L858R/C797S (H1975-clone #8 cells) (Homo sapiens, UniProt P00533, C797S/L858R)",
    "DC50 / nM": 0.97
  },
  {
    "Compound": "COC[C@@H]1CN(c2cc3c(cc2C)N/C2=N\\C(=O)c4cc(C)nc(c4)-c4cnn(C)c4OC[C@H]4CC[C@H](C4)CN23)CCN1C1CCN(c2cc(F)c([C@H]3CCC(=O)NC3=O)c(F)c2)CC1",
    "Experimental Target": "EGFR-L858R/C797S (H1975-clone #8 cells) (Homo sapiens, UniProt P00533, C797S/L858R)",
    "DC50 / nM": 3.15
  },
  {
    "Compound": "Cc1cc2cc(n1)-c1c(C)nn(C)c1OC[C@H]1CC[C@H](C1)CN1/C(=N/C2=O)Nc2ccc(N(C)C3CCN(C4CCN(c5cc(F)c([C@H]6CCC(=O)NC6=O)c(F)c5)CC4)CC3)cc21",
    "Experimental Target": "EGFR-L858R/C797S (H1975-clone #8 cells) (Homo sapiens, UniProt P00533, C797S/L858R)",
    "DC50 / nM": 1.51
  },
  {
    "Compound": "Cc1cc2cc(n1)-c1c(C)nn(C)c1OC[C@H]1CC[C@H](C1)CN1/C(=N/C2=O)Nc2ccc(N3CCN([C@H]4CCN(c5cc(F)c([C@H]6CCC(=O)NC6=O)c(F)c5)C4)CC3)cc21 (single isomer, unassigned)",
    "Experimental Target": "EGFR-L858R/C797S (H1975-clone #8 cells) (Homo sapiens, UniProt P00533, C797S/L858R)",
    "DC50 / nM": 2.92
  },
  {
    "Compound": "Cc1cc2cc(n1)-c1cnn(C)c1OC[C@H]1CCC(C1)CN1/C(=N/C2=O)Nc2ccc(N3CCC(N4CCC(Nc5cc(F)c([C@H]6CCC(=O)NC6=O)c(F)c5)CC4)CC3)cc21 (single isomer, unassigned)",
    "Experimental Target": "EGFR-L858R/C797S (H1975-clone #8 cells) (Homo sapiens, UniProt P00533, C797S/L858R)",
    "DC50 / nM": 0.61
  },
  {
    "Compound": "Cc1cc2cc(n1)-c1c(C)nn(C)c1OC[C@H]1CC[C@H](C1)CN1/C(=N/C2=O)Nc2ccc(N3[C@@H](C)CN(C4CCN(c5cc(F)c([C@H]6CCC(=O)NC6=O)c(F)c5)CC4)C[C@@H]3C)cc21",
    "Experimental Target": "EGFR-L858R/C797S (H1975-clone #8 cells) (Homo sapiens, UniProt P00533, C797S/L858R)",
    "DC50 / nM": 4.41
  },
  {
    "Compound": "COC[C@@H]1CN(c2cc3c(cc2OC)N/C2=N\\C(=O)c4cc(C)nc(c4)-c4c(C)nn(C)c4OC[C@H]4CC[C@H](C4)CN23)CCN1C1CCN(c2cc(F)c([C@H]3CCC(=O)NC3=O)c(F)c2)CC1",
    "Experimental Target": "EGFR-L858R/C797S (H1975-clone #8 cells) (Homo sapiens, UniProt P00533, C797S/L858R)",
    "DC50 / nM": 2.62
  },
  {
    "Compound": "Cc1cc2cc(n1)-c1cnn(C)c1OC[C@H]1CC[C@H](C1)CN1/C(=N/C2=O)Nc2ccc(N3CCN(C4CCN(c5ccc(OC6CCC(=O)NC6=O)nc5C)CC4)CC3)cc21 (stereo partly drawn)",
    "Experimental Target": "EGFR-L858R/C797S (H1975-clone #8 cells) (Homo sapiens, UniProt P00533, C797S/L858R)",
    "DC50 / nM": 3.35
  },
  {
    "Compound": "COC[C@@H]1CN(c2ccc3c(c2)N2C[C@@H]4CC[C@H](COc5c(c(C)nn5C)-c5cc(cc(C)n5)C(=O)/N=C/2N3)C4)CCN1C1CCN(c2c(C)cc(C3CCC(=O)NC3=O)nc2C)CC1 (stereo partly drawn)",
    "Experimental Target": "EGFR-L858R/C797S (H1975-clone #8 cells) (Homo sapiens, UniProt P00533, C797S/L858R)",
    "DC50 / nM": 2.02
  },
  {
    "Compound": "Cc1cc2cc(n1)-c1c(C)nn(C)c1OC[C@H]1CC[C@H](C1)CN1/C(=N/C2=O)Nc2ccc(N3CCN(CC4CN(c5cc(F)c([C@H]6CCC(=O)NC6=O)c(F)c5)C4)[C@@H](CF)C3)cc21",
    "Experimental Target": "EGFR-L858R/C797S (H1975-clone #8 cells) (Homo sapiens, UniProt P00533, C797S/L858R)",
    "DC50 / nM": 3.72
  },
  {
    "Compound": "Cc1cc2cc(n1)-c1cnn(C)c1OC[C@H]1CC[C@H](C1)CN1/C(=N/C2=O)Nc2ccc(N3CCN(C4CCN(c5cc(F)c([C@H]6CCC(=O)NC6=O)c(F)c5)CC4)CC34COC4)cc21",
    "Experimental Target": "EGFR-L858R/C797S (H1975-clone #8 cells) (Homo sapiens, UniProt P00533, C797S/L858R)",
    "DC50 / nM": 3.15
  },
  {
    "Compound": "COC[C@H]1CN(c2ccc3c(c2)N2C[C@@H]4CC[C@H](COc5c(c(C)nn5C)-c5cc(cc(C)n5)C(=O)/N=C/2N3)C4)CCN1C1CCN(c2c(C)cc(NC3CCC(=O)NC3=O)nc2C)CC1 (stereo partly drawn)",
    "Experimental Target": "EGFR-L858R/C797S (H1975-clone #8 cells) (Homo sapiens, UniProt P00533, C797S/L858R)",
    "DC50 / nM": 3.75
  },
  {
    "Compound": "Cc1cc2cc(n1)-c1c(C)nn(C)c1OC[C@H]1CC[C@H](C1)CN1/C(=N/C2=O)Nc2ccc(N3CCN(CC4CN(c5cc(F)c([C@H]6CCC(=O)NC6=O)c(F)c5)C4)[C@H](C(F)F)C3)cc21",
    "Experimental Target": "EGFR-L858R/C797S (H1975-clone #8 cells) (Homo sapiens, UniProt P00533, C797S/L858R)",
    "DC50 / nM": 3.05
  },
  {
    "Compound": "Cc1cc2cc(n1)-c1cnn(C)c1OC[C@H]1CC[C@H](C1)CN1/C(=N/C2=O)Nc2ccc(N3CCN([C@@H]4CCN(c5cccc6c5C(C)(C)C(=O)N6C5CCC(=O)NC5=O)C[C@@H]4F)CC3)cc21 (stereo partly drawn)",
    "Experimental Target": "EGFR-L858R/C797S (H1975-clone #8 cells) (Homo sapiens, UniProt P00533, C797S/L858R)",
    "DC50 / nM": 3.75
  },
  {
    "Compound": "COC[C@@H]1CN(c2ccc3c(c2)N2CC4CC[C@H](COc5c(c(C(F)(F)F)nn5C)-c5cc(cc(C)n5)C(=O)/N=C/2N3)C4)CCN1C1CCN(c2cc(F)c([C@H]3CCC(=O)NC3=O)c(F)c2)CC1",
    "Experimental Target": "EGFR-L858R/C797S (H1975-clone #8 cells) (Homo sapiens, UniProt P00533, C797S/L858R)",
    "DC50 / nM": 5.5
  }
]

meta.source: patent US20240425523A1
